Target: human HCN4 channel (Homo sapiens)
Construct: expressed in transfected cells; host or cells: CHO-K1
Sequence (Q9Y3Q4 whole entry): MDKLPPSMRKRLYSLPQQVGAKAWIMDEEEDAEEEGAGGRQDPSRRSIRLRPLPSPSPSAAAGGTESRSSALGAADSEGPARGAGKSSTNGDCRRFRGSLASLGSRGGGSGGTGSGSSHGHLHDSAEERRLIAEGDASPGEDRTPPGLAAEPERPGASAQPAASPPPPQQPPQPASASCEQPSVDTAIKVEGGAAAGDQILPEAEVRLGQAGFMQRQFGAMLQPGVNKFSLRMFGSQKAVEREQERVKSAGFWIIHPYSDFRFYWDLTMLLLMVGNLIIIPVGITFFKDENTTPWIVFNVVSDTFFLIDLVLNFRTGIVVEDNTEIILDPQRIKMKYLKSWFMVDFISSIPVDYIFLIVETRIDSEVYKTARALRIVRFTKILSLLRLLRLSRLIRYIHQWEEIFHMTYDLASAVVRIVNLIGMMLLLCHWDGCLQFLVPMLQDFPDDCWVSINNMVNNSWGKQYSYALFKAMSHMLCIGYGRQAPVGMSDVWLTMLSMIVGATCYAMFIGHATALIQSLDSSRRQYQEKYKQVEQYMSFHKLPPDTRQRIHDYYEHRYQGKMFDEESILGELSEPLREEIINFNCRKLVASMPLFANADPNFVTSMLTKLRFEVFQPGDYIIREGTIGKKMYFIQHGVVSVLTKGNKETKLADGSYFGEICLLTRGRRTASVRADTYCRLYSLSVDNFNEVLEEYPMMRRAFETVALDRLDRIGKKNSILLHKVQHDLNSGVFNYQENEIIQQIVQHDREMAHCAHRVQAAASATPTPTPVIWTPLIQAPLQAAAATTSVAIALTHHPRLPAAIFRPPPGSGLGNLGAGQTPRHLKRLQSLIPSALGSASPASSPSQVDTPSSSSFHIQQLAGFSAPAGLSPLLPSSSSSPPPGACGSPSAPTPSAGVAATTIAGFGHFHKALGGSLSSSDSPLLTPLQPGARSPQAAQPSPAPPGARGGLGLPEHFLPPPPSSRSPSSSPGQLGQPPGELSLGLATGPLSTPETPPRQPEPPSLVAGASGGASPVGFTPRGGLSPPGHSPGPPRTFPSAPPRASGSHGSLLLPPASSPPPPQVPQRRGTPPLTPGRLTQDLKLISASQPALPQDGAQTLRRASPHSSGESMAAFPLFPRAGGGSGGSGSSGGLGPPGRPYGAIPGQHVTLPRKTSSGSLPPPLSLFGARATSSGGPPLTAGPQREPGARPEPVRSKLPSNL
Assay: Dose response of blockade of hyperpolarization (MPSD FLIPR), HCN4
Assay type: cell-based
Details: CHO-K1, group 2, n=8, mean ± 2.61 μM, read-out: IC50 mean, group 2
parameter.measured: IC50 (µM)
Give the number; µM is assumed, so skip it.

The reported IC50 of the compound CCN(c1ccccc1)c1cc(=NC)n(C)c(C)n1.Cl [ZD7288] was 9.06
